FYI, the data here is from ChEMBL document CHEMBL3885861.

- Species: Rattus norvegicus
- assay_protocol: Open TG-GATES - Regimen: Daily Repeat
- Type: toxicity, organism-based, Sprague-Dawley
- Design: regimen Daily Repeat, gender Male, age 6 weeks
- assay_setup: in vivo, po, 0 mg/kg, […], tissue Plasma, route gavage, dose level Control, time 7 day
assay_readout: Cl (meq/L)

{"compound": "COc1ccc(Cc2nccc3cc(OC)c(OC)cc23)cc1OC", "unit_descriptor": "meq/L", "recorded_result": 107.2}
{"compound": "NC(=O)N/N=C/c1ccc([N+](=O)[O-])o1", "unit_descriptor": "meq/L", "recorded_result": 104}
{"compound": "COc1ccc2c(c1)c(CC(=O)O)c(C)n2C(=O)c1ccc(Cl)cc1", "unit_descriptor": "meq/L", "recorded_result": 106.8}
{"compound": "NC(=O)N1c2ccccc2C=Cc2ccccc21 [CARBAMAZEPINE]", "unit_descriptor": "meq/L", "recorded_result": 102.4}
{"compound": "Cn1c(=O)c2[nH]cnc2n(C)c1=O.O", "unit_descriptor": "meq/L", "recorded_result": 106.6}
{"compound": "CCc1cc(C(N)=S)ccn1 [ETHIONAMIDE]", "unit_descriptor": "meq/L", "recorded_result": 103.8}
{"compound": "CN(C)CCC=C1c2ccccc2CCc2ccccc21", "unit_descriptor": "meq/L", "recorded_result": 106.4}
{"compound": "CC(=O)Oc1ccccc1C(=O)O", "unit_descriptor": "meq/L", "recorded_result": 102.4}
{"compound": "O=C(O)c1cc(/N=N/c2ccc(S(=O)(=O)Nc3ccccn3)cc2)ccc1O", "unit_descriptor": "meq/L", "recorded_result": 103.4}
